- Test system: Dog intraocular pressure
- test.description: Dog intraocular pressure (applanation pneumatonometry) with hyperemia/miosis
- Type: in vivo
- applied.conditions: 0.1%; first part of Hyp/Mlosis cell
measured.parameter: Hyp

Look over these answered cases.
[
  {
    "molecule": "NC(=O)CCC/C=C\\C[C@H]1C(O)CC(O)C1/C=C/C(O)CCc1ccco1 (stereo partly shown)",
    "Hyp": 1.0
  },
  {
    "molecule": "Cc1cc(CCC(O)/C=C/C2C(O)CC(O)[C@@H]2C/C=C\\CCCC(N)=O)cs1 (stereo partly shown)",
    "Hyp": 0.6
  }
]

P: Cc1ccc(CCC(O)/C=C/C2C(O)CC(O)[C@@H]2C/C=C\CCCC(N)=O)o1 (stereo partly shown)
Q: Cc1ccc(CCC(O)/C=C/C2C(O)CC(O)[C@@H]2C/C=C\CCCC(=O)O)o1 (stereo partly shown)
Request: Please indicate which item has the smaller measured Hyp: P versus Q I would appreciate it if you answered with the label of your choice.
Result: P

----------
- target.desc: EP4 (Oryctolagus cuniculus, UniProt Q28691)
- Construct: smooth muscle of isolated rabbit jugular vein; from tissue; host or cells: isolated rabbit jugular vein smooth muscle
- Sequence (Q28691 whole entry): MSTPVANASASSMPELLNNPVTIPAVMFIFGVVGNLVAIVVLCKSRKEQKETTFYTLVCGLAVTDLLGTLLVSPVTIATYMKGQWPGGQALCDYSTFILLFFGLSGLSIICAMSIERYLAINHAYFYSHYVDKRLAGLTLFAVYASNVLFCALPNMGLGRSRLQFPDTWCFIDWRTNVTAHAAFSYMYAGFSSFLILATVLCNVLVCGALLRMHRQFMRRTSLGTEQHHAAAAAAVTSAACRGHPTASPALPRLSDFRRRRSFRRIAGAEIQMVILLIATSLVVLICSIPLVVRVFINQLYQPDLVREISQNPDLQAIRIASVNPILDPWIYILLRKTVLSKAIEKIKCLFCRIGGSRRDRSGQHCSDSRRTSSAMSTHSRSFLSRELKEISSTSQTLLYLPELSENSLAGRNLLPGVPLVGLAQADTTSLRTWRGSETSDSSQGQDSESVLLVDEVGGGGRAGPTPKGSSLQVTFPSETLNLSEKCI
- test.description: EP4-activity: relaxation of smooth muscle of isolated rabbit jugular vein
- Format: cell-based
- applied.conditions: nM printed only with EC50 in the table head
measured.parameter: IC25 EP4 (nM)

Look over these answered cases.
[
  {
    "compound": "Cc1ccc(CCC(O)/C=C/C2C(O)CC(O)[C@@H]2C/C=C\\CCCC(=O)O)o1 (some centres unmarked)",
    "measured.parameter": "IC25 EP4",
    "experimental.value": 23
  },
  {
    "compound": "Cc1cc(CCC(O)/C=C/C2C(O)CC(O)[C@@H]2C/C=C\\CCCC(N)=O)cs1 (some centres unmarked)",
    "measured.parameter": "IC25 EP4",
    "experimental.value": 1630
  },
  {
    "compound": "COC(/C=C/C1C(O)CC(O)[C@@H]1C/C=C\\CCCC(=O)O)CCc1ccco1 (some centres unmarked)",
    "measured.parameter": "IC25 EP4",
    "experimental.value": 57
  }
]

I: O=C(O)CCC/C=C\C[C@H]1C(O)CC(O)C1/C=C/C(O)CCc1cc(Br)c(Br)s1 (some centres unmarked)
II: Cc1ccc(CCC(O)/C=C/C2C(O)CC(O)[C@@H]2C/C=C\CCCC(N)=O)o1 (some centres unmarked)
Request: Please indicate which item has the smaller measured IC25 EP4: I versus II I would appreciate it if you answered with the label of your choice.
Result: I
(I: 23 nM, II: 3760 nM)

----------
- target.desc: EP4 (Oryctolagus cuniculus, UniProt Q28691)
- Construct: smooth muscle of isolated rabbit jugular vein; from tissue; host or cells: isolated rabbit jugular vein smooth muscle
- test.description: EP4-activity: relaxation of smooth muscle of isolated rabbit jugular vein
- Type: cell-based
- applied.conditions: nM printed only with EC50 in the table head
measured.parameter: IC25 EP4 (nM)

P: O=C(O)CCC/C=C\C[C@H]1C(O)CC(O)C1/C=C/C(O)CCc1sc2ccccc2c1Cl (stereo partly shown)
Q: NC(=O)CCC/C=C\C[C@H]1C(O)CC(O)C1/C=C/C(O)CCc1cc(Br)c(Br)s1 (stereo partly shown)
R: COC(/C=C/C1C(O)CC(O)[C@@H]1C/C=C\CCCC(=O)O)CCc1ccsc1C (stereo partly shown)
S: NC(=O)CCC/C=C\C[C@H]1C(O)CC(O)C1/C=C/C(O)CCc1ccco1 (stereo partly shown)
Request: Order them by IC25 EP4, ascending: the molecules above. As an answer, provide the labels arranged in the order called for.
Result: R, Q, S, P
